Test: Half-crystallisation time (t1/2), isothermal DSC
Assay type: physicochemical
Conditions: 110 °C; 1% salt in PET, 2-roll mill 270 °C 5 min; after melting 1 minute at 290 °C
Param label: returns Y when t1/2 (sec) 110° C. < 80 s, returns N otherwise, including exact equality.

Please review the following examples before continuing.
O=C(O)c1ccccc1Cl :: Y
O=C(O)c1ccc([N+](=O)[O-])cc1 :: Y
O=C(O)c1ccccc1[N+](=O)[O-] :: Y

QUERY: Strictly below 80 s: is that where t1/2 (sec) 110° C. of O=C(O)c1ccc(Cl)cc1Cl sits?
RESULT: Y

QUERY: And for O=C(O)c1c(O)cc(O)cc1O [2,4,6-dihydroxy benzoic acid] ?
RESULT: N

QUERY: And for O=C(O)c1ccc(F)cc1 ?
RESULT: Y

QUERY: And for O=C(O)c1cc([N+](=O)[O-])ccc1Cl ?
RESULT: Y

QUERY: And for O=C(O)c1cc([N+](=O)[O-])cc([N+](=O)[O-])c1 ?
RESULT: N

QUERY: And for O=C(O)c1ccc(O)cc1O [2,4-dihydroxy benzoic acid] ?
RESULT: N

QUERY: And for O=C(O)c1cccc(O)c1 [metra-hydroxy benzoic acid] ?
RESULT: N
